test system: MV4;11 cells; assay: MV4;11 in vitro inhibition of proliferation assay (CellTiter-Glo, 72 hours); assay type: cell-based; details: IC50 class, read-out: Inhibitory activity of cell proliferation MV4;11
pIC50: −log10 of the molar value.
measured-endpoint: pIC50

[
  {
    "compound": "CCc1nc2c(N)ncc(-c3cnn(C4C[C@H]5CC[C@@H](C4)N5)c3)c2nc1N[C@@H]1CC[C@H](O)C1 (single isomer, unassigned) [Compound 163]",
    "pIC50": "7.00 to 8.00"
  },
  {
    "compound": "CCc1nc2c(N)ncc(-c3cnn(C4C[C@H]5CC[C@@H](C4)N5)c3)c2nc1N[C@@H]1CC[C@H](O)C1 (single isomer, unassigned) [Compound 162]",
    "pIC50": "6.30 to 7.00"
  },
  {
    "compound": "CCc1nc2c(N)ncc(-c3cnn(C4CCC(C)(O)CC4)c3)c2nc1N[C@@H]1CC[C@H](O)C1 (single isomer, unassigned) [Compound 285]",
    "pIC50": "≥ 8.00"
  }
]

Could you now look at the following compound, please?
Prompt: Respond only with pIC50 recorded for CCc1nc2c(N)ncc(-c3cnn(C4C[C@H]5CC[C@@H](C4)N5C)c3)c2nc1N[C@@H]1CC[C@H](O)C1 (single isomer, unassigned) [Compound 165]
Response: ≥ 8.00
